# IC50 listing for each entry below
Test system: TCF/LEF luciferase Reporter in DLD1 cells
Assay: TCF reporter assay (DLD1 TCF/LEF luciferase reporter, Bright-Glo)
Type: cell-based
Settings: absolute IC50; read-out: DLD1 reporter assay Abs IC50
Express your answer in µM, writing the number without its unit.

compound="CC(=O)N1CCC[C@]12CC=CCCCC1(CCCC=CCCCCCC[C@@](C)(C(=O)N[C@@H](Cc3ccccc3Cl)C(=O)N[C@@H](Cc3csc4ccccc34)C(=O)N[C@@H](CCO)C(N)=O)NC(=O)[C@H](CCO)NC(=O)[C@H](Cc3ccccc3)NC(=O)[C@H](C)NC(=O)[C@H](C)NC(=O)[C@H](CN(CC(=O)O)CC(F)(F)F)NC(=O)[C@H](CC(=O)O)NC1=O)NC(=O)[C@H](CC(C)(C)C)NC(=O)[C@H](CC(=O)O)NC2=O (some centres unmarked)" target="TCF/LEF luciferase Reporter in DLD1 cells" experimental_result=8
compound="CC(=O)N1CCC[C@]12CC=CCCCC1(CCCC=CCCCOC(=O)N3CC[C@@](C(=O)N[C@@H](Cc4ccccc4Cl)C(=O)N[C@@H](Cc4csc5ccccc45)C(=O)N[C@@H](C)CO)(C3)NC(=O)[C@H]([C@@H](C)O)NC(=O)[C@H](Cc3ccccc3)NC(=O)[C@H](C)NC(=O)[C@H](C)NC(=O)[C@H](CC(=O)O)NC(=O)[C@H](CC(=O)O)NC1=O)NC(=O)[C@H](CC(C)(C)C)NC(=O)[C@H](CC(=O)O)NC2=O (some centres unmarked)" target="TCF/LEF luciferase Reporter in DLD1 cells" experimental_result=15.9
compound="CC(=O)N1CCC[C@]12CC=CCCCC1(CCCC=CCCCOC(=O)N3CC[C@@](C(=O)N[C@@H](Cc4ccccc4Cl)C(=O)N[C@@H](Cc4csc5ccccc45)C(=O)N[C@@H](C(N)=O)[C@H](C)O)(C3)NC(=O)[C@H](Cc3ccccc3)NC(=O)[C@H](Cc3ccccc3)NC(=O)[C@H](C)NC(=O)[C@H](C)NC(=O)[C@H](CC(=O)O)NC(=O)[C@H](CC(=O)O)NC1=O)NC(=O)[C@H](CC(C)(C)C)NC(=O)[C@H](CC(=O)O)NC2=O (some centres unmarked)" target="TCF/LEF luciferase Reporter in DLD1 cells" experimental_result=11.9
compound="CC(=O)N1CCC[C@]12CC=CCCCC1(CCCC=CCCCOC(=O)N3CC[C@@](C(=O)N[C@@H](Cc4ccccc4Cl)C(=O)N[C@@H](Cc4csc5ccccc45)C(=O)N[C@H](CO)CC(C)C)(C3)NC(=O)[C@H](CC(N)=O)NC(=O)[C@H](Cc3ccccc3)NC(=O)[C@H](C)NC(=O)[C@H](C)NC(=O)[C@H](CC(=O)O)NC(=O)[C@H](CC(=O)O)NC1=O)NC(=O)[C@H](CC(C)(C)C)NC(=O)[C@H](CC(=O)O)NC2=O (some centres unmarked)" target="TCF/LEF luciferase Reporter in DLD1 cells" experimental_result=17.2

Reported IC50 for CC(=O)N1CCC[C@]12CC=CCCCC1(CCCC=CCCCOC(=O)N3CC[C@@](C(=O)N[C@@H](Cc4ccccc4Cl)C(=O)N[C@@H](Cc4csc5ccccc45)C(=O)N[C@@H](CCC(N)=O)C(N)=O)(C3)NC(=O)[C@H](CO)NC(=O)[C@H](Cc3ccccc3)NC(=O)[C@H](C)NC(=O)[C@H](C)NC(=O)[C@H](CC(=O)O)NC(=O)[C@H](CC(=O)O)NC1=O)NC(=O)[C@H](CC1CCCCC1)NC(=O)[C@H](CC(=O)O)NC2=O (some centres unmarked) was 20

Reported IC50 for CC(=O)N1CCC[C@]12CC=CCCCC1(CCCC=CCCCCCC[C@@](C)(C(=O)N[C@@H](Cc3ccccc3Cl)C(=O)N[C@@H](Cc3csc4ccccc34)C(=O)N[C@@H](CCC(N)=O)C(N)=O)NC(=O)[C@H](CCO)NC(=O)[C@H](Cc3ccccc3)NC(=O)[C@H](C)NC(=O)[C@H](C)NC(=O)[C@H](CN(CC(=O)O)CC(F)(F)F)NC(=O)[C@H](CC(=O)O)NC1=O)NC(=O)[C@H](CC(C)(C)C)NC(=O)[C@H](CC(=O)O)NC2=O (some centres unmarked) was 10.8

Reported IC50 for CCNC(=O)[C@H](CCC(N)=O)NC(=O)[C@H](Cc1csc2ccccc12)NC(=O)[C@H](Cc1ccccc1Cl)NC(=O)[C@]12CCN(C1)C(=O)OCCCC=CCCCC1(CCCC=CC[C@]3(CCCN3C(C)=O)C(=O)N[C@@H](CC(=O)O)C(=O)N[C@@H](CC(C)(C)C)C(=O)N1)C(=O)N[C@@H](CC(=O)O)C(=O)N[C@@H](CC(=O)O)C(=O)N[C@@H](C)C(=O)N[C@@H](C)C(=O)N[C@@H](Cc1ccccc1)C(=O)N[C@@H](CC(N)=O)C(=O)N2 (some centres unmarked) was 14.5
